System: PC-3
Experiment: NCI tumour cell line growth inhibition, 48 h
Calls of active or inactive are those of the source. No stated cut-off is given here; in the data, active = GI50 up to about 1.1 µM and inactive = higher.
Your reply should match one of these outcome classes. YES = active, NO = inactive

[in] Returns: the outcome recorded for S=c1nc2[nH]c3ccc(Br)cc3c2n[nH]1 in this assay.
[out] NO

[in] Please let me know the test result on file for O=C(/C=C/c1ccccc1)OCC1=C[C@@H](O)[C@@H]2C=CO[C@@H](OC3OC(CO)C(O)C(O)C3O)[C@H]12 (stereo not given in full) .
[out] NO

[in] Assay result, entry CC(=O)NCCSC(=O)c1ccccc1 — outcome?
[out] YES

[in] I'd appreciate the recorded outcome for Cc1cc(N(CCC#N)S(=O)(=O)c2ccccc2)ccc1/C=N/c1ccc(C(=O)O)cc1 from this test.
[out] NO

[in] I would be grateful if you could indicate the recorded call for CCOC(=O)N(Cc1cccs1)c1cc(OC)c(OC)c(OC)c1 .
[out] NO
